# target_or_test_system: Protein mono-ADP-ribosyltransferase TIPARP (Homo sapiens)
# Sequence (Q7Z3E1 whole entry, the tested form may be a part): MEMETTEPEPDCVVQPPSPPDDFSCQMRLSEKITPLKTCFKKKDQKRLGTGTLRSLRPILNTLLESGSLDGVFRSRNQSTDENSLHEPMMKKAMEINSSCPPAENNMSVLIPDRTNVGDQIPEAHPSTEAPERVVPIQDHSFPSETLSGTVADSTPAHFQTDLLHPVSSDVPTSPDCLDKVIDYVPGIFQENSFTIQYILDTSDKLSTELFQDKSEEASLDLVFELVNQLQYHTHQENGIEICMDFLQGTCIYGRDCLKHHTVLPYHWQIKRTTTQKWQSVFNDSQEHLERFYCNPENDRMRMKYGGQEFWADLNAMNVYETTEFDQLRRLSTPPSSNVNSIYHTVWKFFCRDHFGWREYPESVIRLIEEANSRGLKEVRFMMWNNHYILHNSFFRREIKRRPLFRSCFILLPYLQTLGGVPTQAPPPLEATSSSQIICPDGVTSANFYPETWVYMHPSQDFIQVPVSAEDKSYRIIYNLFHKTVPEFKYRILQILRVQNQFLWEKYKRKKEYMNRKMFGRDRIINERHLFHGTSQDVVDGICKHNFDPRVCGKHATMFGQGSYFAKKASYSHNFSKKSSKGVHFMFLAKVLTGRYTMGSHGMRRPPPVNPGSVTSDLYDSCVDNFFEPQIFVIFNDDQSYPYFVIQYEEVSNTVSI
# assay_details: Inhibition of N-terminal FLAG-tagged human recombinant PARP7 (400 to 657 residues) expressed in Sf9 insect cells by chemiluminescence assay
pIC50: −log10 of the molar value.
measured_metric: pIC50

>>> number("Cc1ccc2c(=O)[nH]c(-c3ccc(C(C)(C)O)cc3)cn12")
6.48

---

# assay_details: Volume of distribution at steady state in rat
# Format: ADME
# run_conditions: in vivo, read-out: Vdss
measured_metric: Vd (L/kg)

>>> number("Cc1ccc2c(=O)[nH]c(-c3ccc(C(C)(C)O)cc3)cn12")
0.91

---

# assay_details: Volume of distribution at steady state in monkey
# Format: ADME, Macaca mulatta
# run_conditions: rhesus monkey, in vivo; read-out: Vdss
measured_metric: Vd (L/kg)

>>> number("Cc1ccc2c(=O)[nH]c(-c3ccc(C(C)(C)O)cc3)cn12")
3.15

---

# target_or_test_system: UniProt:O95271
# assay_details: Inhibition of TNKS1 (unknown origin) using biotinylated NAD as substrate assessed as inhibition of autoPARsylation activity incubated for 90 mins by TR-FRET analysis
measured_metric: IC50 (nM)

>>> number("Cc1ccc(-c2cn3ccnc3c(=O)[nH]2)cc1")
1500

---

# target_or_test_system: Poly [ADP-ribose] polymerase tankyrase-1 (Homo sapiens, UniProt O95271)
# Sequence (O95271 whole entry): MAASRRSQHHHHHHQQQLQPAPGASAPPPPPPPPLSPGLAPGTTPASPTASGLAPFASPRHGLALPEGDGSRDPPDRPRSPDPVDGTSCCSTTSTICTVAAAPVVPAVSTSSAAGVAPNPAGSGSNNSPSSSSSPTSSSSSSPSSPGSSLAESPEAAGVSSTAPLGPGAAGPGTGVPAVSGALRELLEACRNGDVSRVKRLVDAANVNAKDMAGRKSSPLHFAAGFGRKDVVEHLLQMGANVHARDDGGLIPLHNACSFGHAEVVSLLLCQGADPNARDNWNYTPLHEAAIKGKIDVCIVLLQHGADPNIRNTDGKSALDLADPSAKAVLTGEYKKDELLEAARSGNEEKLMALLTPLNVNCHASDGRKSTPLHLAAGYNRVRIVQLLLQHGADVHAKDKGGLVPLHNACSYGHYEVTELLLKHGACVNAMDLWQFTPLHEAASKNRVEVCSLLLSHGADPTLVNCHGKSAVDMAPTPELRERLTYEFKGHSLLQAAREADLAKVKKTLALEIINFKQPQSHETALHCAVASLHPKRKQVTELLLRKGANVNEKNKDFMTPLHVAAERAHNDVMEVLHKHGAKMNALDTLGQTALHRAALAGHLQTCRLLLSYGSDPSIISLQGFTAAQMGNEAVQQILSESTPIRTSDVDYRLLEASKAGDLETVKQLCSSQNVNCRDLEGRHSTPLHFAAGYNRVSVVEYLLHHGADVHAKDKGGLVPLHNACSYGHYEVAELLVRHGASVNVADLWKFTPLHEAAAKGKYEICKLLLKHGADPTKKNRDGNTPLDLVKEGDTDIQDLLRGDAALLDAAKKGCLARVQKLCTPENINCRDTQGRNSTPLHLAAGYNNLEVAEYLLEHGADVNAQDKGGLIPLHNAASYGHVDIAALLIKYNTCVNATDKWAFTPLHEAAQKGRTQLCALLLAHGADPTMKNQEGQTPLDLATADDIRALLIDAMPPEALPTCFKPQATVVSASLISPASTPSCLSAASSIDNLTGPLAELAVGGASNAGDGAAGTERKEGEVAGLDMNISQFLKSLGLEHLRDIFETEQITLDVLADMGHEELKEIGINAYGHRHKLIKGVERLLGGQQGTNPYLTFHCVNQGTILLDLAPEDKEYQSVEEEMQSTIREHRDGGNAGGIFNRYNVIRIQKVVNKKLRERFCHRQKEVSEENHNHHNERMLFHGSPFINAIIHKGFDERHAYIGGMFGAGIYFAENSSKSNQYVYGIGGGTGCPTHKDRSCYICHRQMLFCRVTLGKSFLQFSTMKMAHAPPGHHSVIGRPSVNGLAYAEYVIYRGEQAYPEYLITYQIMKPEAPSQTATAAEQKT
# assay_details: Inhibition of TNKS1 (unknown origin) using biotinylated NAD as substrate assessed as inhibition of autoPARsylation activity incubated for 1 hr by ELISA
Returns: string. Value is Fulfilled if measured IC50 is below 3 nM, and Not fulfilled if it is greater than or equal to it.

>>> category("Cc1ccc2c(=O)[nH]c(-c3ccc([C@@](C)(O)CO)cc3)cn12")
"Fulfilled"
>>> category("Cc1ncc2c(=O)[nH]c(-c3ccc(C(C)(C)O)cc3)cn12")
"Not fulfilled"
>>> category("Cc1cc2c(=O)[nH]c(-c3ccc(C(C)(C)O)cc3)nn2n1")
"Not fulfilled"
>>> category("Cc1ncc2c(=O)[nH]c(-c3ccc(C(C)(C)C)cc3)cn12")
"Fulfilled"
>>> category("Cc1csc2c(=O)[nH]c(-c3ccc(C(C)(C)O)cc3)nc12")
"Fulfilled"
>>> category("CC(C)(O)c1ccc(-c2cn3c(F)c(F)cc3c(=O)[nH]2)cc1")
"Fulfilled"
>>> category("Cc1ccc2c(=O)[nH]c(-c3ccc(C(C)(C)OCCO)cc3)cn12")
"Fulfilled"
>>> category("CC(C)(C)c1ccc(-c2cn3cncc3c(=O)[nH]2)cc1")
"Not fulfilled"
>>> category("Cc1cc2c(=O)[nH]c(-c3ccc(C(C)(C)O)cc3)cn2c1")
"Fulfilled"
>>> category("Cc1ccc2c(=O)[nH]c(-c3ccc([C@@](C)(O)CCO)cc3)cn12")
"Fulfilled"
>>> category("Cc1ccc2c(=O)[nH]c(-c3ccc(C(C)(C)O)cc3)nn12")
"Fulfilled"

---

# target_or_test_system: Poly [ADP-ribose] polymerase 1 (Homo sapiens)
# Sequence (P09874 whole entry): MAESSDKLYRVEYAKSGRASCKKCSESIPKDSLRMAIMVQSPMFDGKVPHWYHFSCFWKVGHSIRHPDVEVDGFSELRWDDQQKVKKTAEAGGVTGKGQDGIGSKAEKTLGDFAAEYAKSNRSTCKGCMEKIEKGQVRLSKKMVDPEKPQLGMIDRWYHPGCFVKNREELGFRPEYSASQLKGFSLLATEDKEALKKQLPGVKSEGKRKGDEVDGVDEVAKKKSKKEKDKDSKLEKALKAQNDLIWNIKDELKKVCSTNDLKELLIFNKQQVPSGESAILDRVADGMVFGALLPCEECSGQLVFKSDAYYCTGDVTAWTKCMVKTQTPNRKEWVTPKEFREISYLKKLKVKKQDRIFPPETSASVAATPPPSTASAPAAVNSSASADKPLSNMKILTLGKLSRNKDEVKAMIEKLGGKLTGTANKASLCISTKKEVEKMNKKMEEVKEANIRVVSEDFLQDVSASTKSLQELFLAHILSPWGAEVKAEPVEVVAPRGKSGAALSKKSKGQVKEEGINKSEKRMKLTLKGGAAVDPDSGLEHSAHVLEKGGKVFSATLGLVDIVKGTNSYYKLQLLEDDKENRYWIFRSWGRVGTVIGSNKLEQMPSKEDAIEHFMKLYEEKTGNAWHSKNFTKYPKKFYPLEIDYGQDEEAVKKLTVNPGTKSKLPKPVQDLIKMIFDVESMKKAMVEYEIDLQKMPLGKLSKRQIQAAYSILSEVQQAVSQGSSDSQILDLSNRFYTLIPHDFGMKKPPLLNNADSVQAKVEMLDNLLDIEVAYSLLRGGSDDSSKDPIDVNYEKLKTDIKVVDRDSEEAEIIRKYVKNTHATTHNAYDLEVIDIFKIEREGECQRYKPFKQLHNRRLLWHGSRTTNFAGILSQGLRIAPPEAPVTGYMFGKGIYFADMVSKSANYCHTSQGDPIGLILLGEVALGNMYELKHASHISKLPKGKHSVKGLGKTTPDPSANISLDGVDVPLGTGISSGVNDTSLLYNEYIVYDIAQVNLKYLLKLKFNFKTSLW
# assay_details: Inhibition of PARP-1 (unknown origin) using biotinylated NAD and NAD as substrate assessed as inhibition of auto-PARsylation incubated for 150 mins by TR-FRET assay
pIC50: −log10 of the molar value.
measured_metric: pIC50

>>> number("Cc1ccc2c(=O)[nH]c(-c3ccc(C(C)(C)O)cc3)cn12")
6.03
>>> number("Cc1ccc2c(=O)[nH]c(-c3ccc(C(C)(C)OCCO)cc3)cn12")
6.16
>>> number("Cc1ccc2c(=O)[nH]c(-c3ccc([C@](C)(O)CCO)cc3)cn12")
6.11
>>> number("Cc1ccc2c(=O)[nH]c(-c3ccc(C4(O)COC4)cc3)cn12")
6.46
>>> number("CC(C)(O)c1ccc(-c2cn3cc(Cl)cc3c(=O)[nH]2)cc1")
6.20
>>> number("Cc1ccc2c(=O)[nH]c(-c3ccc(C4(O)CC4)cc3)cn12")
6.48
